measured.on: MMP-14 (Homo sapiens)
Construct: The catalytic domain enzyme was expressed in E. coli inclusion bodies, solubilized in urea; made in house
assay.name: In vitro MMP inhibition, Ki determination (fluorogenic substrate II)
Type: biochemical
test.parameters: human recombinant enzyme (catalytic domain); 4 μM substrate II; room temperature, 1 hr; read-out: MMP-14 Ki
Where a name gives a salt, the structure may show the parent alone.
observed.property: Ki (µM)

>  <molecule>
O=C(NO)C1(S(=O)(=O)N2CCN(c3ccc(OCC4CC4)c(F)c3)CC2)CCN(C2CC2)CC1 [Example 10, dihydrochloride]

>  <Ki (µM)>
4.34

$$$$

I: COCCN1CCC(C(=O)NO)(S(=O)(=O)N2CCN(c3ccc(OCCCC(F)(F)F)cc3)CC2)CC1 [Example 9, Dihydrochloride]
II: COc1ccc(-c2cnc(N3CCN(S(=O)(=O)C4(C(=O)NO)CCOCC4)CC3)nc2)cc1 [Example 8, Hydrochloride]
III: O=C(NO)C1(S(=O)(=O)N2CCN(c3ccc(OCC(F)(F)F)cc3)CC2)CCOCC1 [Example 2, Hydrochloride]
IV: CCCCCc1ccc(C2CCN(S(=O)(=O)C3(C(=O)NO)CCN(CCOC)CC3)CC2)cc1 [Example 15, Hydrochloride]
V: CCOc1ccc(N2CCN(S(=O)(=O)C3(C(=O)NO)CCOCC3)CC2)cc1
Would you mind ranking these molecules by ascending Ki? Form entry: ranked labels (order as requested).
II, V, III, IV, I

P: O=C(NO)C1(S(=O)(=O)N2CCC(c3cnc(OCC(F)(F)C(F)(F)F)cn3)CC2)CCOCC1
Q: O=C(NO)C1(S(=O)(=O)N2CCC(c3ccc(CCC(F)(F)C(F)(F)F)cc3)CC2)CCOCC1
Quick check, higher Ki between P and Q ? Pick one and reply with its label.
P
(P: 6.2 µM, Q: 1.77 µM)

1: CCCCCc1ccc(N2CCN(S(=O)(=O)C3(C(=O)NO)CCN(CCOC)CC3)CC2)cc1 [Example 6, Dihydrochloride]
2: CCCCCCCCC1CCN(S(=O)(=O)C2(C(=O)NO)CCOCC2)CC1
Compare 1 and 2 by numeric Ki and name the larger one. Kindly give the label for the entry you pick.
1

A: CCCCc1ccc(N2CCN(S(=O)(=O)C3(C(=O)NO)CCN(CCOC)CC3)CC2)cc1 [Example 5, Dihydrochloride]
B: CCCCCc1ccc(N2CCN(S(=O)(=O)C3(C(=O)NO)CCN(C(=O)C(F)(F)F)CC3)CC2)cc1 [Example 21, Hydrochloride]
From the recorded data, which exceeds the other in Ki: A or B ? Kindly give the label for the entry you pick.
B

====

measured.on: MMP-13 (Homo sapiens, UniProt P45452)
Construct: made in house; host or cells: baculovirus / insect cells
assay.name: In vitro MMP inhibition, IC50 determination (fluorogenic substrate I)
Format: biochemical
test.parameters: value in parentheses; read-out: MMP-13 (IC-50)
observed.property: IC50 (nM)

>  <input.smiles>
CCCCOc1ccc(N2CCN(S(=O)(=O)C3(C(=O)NO)CCN(C(=O)CN)CC3)CC2)cc1

>  <measured.on>
MMP-13 (Homo sapiens, UniProt P45452)

>  <reported.value>
0.7

$$$$

a: CCCCOc1ccc(N2CCN(S(=O)(=O)C3(C(=O)NO)CCN(CC4CC4)CC3)CC2)cc1
b: Cc1cc(N2CCN(S(=O)(=O)C3(C(=O)NO)CCOCC3)CC2)ccc1OC(C)C
Param metric = IC50; output whichever of a , b has the minimum value. Provide the label of your selected option as the answer.
a

====

measured.on: MMP-9 (Homo sapiens, UniProt P14780)
Construct: made in house; host or cells: MMP-9-transfected HT1080 cells (spent media)
Sequence (P14780 107-707 limits assumed): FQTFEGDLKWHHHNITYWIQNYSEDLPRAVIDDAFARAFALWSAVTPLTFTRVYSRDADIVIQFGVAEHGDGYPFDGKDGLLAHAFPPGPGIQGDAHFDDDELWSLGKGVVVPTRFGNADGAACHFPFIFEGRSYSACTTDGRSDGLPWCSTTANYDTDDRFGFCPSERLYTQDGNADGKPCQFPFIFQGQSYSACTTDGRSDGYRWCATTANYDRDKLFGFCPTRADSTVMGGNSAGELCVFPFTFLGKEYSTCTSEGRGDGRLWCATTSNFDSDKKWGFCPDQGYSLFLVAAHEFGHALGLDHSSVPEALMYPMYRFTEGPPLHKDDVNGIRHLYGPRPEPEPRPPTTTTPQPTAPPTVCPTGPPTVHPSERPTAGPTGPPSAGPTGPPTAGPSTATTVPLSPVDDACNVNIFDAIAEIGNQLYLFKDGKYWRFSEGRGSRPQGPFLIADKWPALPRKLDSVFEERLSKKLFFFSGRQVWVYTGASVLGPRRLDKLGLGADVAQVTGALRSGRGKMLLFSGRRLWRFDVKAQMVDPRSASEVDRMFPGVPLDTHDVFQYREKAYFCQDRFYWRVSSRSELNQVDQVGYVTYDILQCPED
assay.name: In vitro MMP inhibition, Ki determination (fluorogenic substrate II)
Assay type: biochemical
test.parameters: value not in parenthesis
observed.property: Ki (nM)

# example entries with known answers
>  <input.smiles>
CCc1ccc(N2CCN(S(=O)(=O)C3(C(=O)NO)CCN(CCOC)CC3)CC2)cc1

>  <Ki / nM>
3.11

$$$$
>  <input.smiles>
CCCCOc1ccc(N2CCN(S(=O)(=O)C3(C(=O)NO)CCN(C(=O)OCCOC)CC3)CC2)cc1

>  <Ki / nM>
5.33

$$$$
>  <input.smiles>
O=C(NO)C1(S(=O)(=O)N2CCN(c3ccc(OCCCCF)cc3)CC2)CCOCC1

>  <Ki / nM>
2.23

$$$$
>  <input.smiles>
CCCCOc1ccc(N2CCN(S(=O)(=O)C3(C(=O)NO)CCN(c4ccc(O)cc4)CC3)CC2)cc1

>  <Ki / nM>
3.6

$$$$
>  <input.smiles>
CCCCOc1ccc(N2CCN(S(=O)(=O)C3(C(=O)NO)CCN(C(=O)N4CCOCC4)CC3)CC2)cc1

>  <Ki / nM>
0.429

$$$$
>  <input.smiles>
COCCN1CCC(C(=O)NO)(S(=O)(=O)N2CCN(c3ccc(OCC(F)(F)F)cc3)CC2)CC1

>  <Ki / nM>
1.35

$$$$

a: COCCN1CCC(C(=O)NO)(S(=O)(=O)N2CCN(c3ccc(C)cc3)CC2)CC1
b: O=C(NO)C1(S(=O)(=O)N2CCN(c3ccc(COCC(F)(F)C(F)F)cc3)CC2)CCOCC1
# query: argmin of Ki over a and b Identify your selection by its label.
a
(a: 7.19 nM, b: 13 nM)

I: COCCN1CCC(C(=O)NO)(S(=O)(=O)N2CCN(c3ccc(Br)cc3)CC2)CC1
II: O=C(NO)C1(S(=O)(=O)N2CCN(c3ccccn3)CC2)CCOCC1
III: CC(C)CCOc1ccc(N2CCN(S(=O)(=O)C3(C(=O)NO)CCN(C4CC4)CC3)CC2)cc1
# ascending order, key=Ki Field: ranking. Enter the labels in the order requested.
III, I, II
(III: 1.92 nM, I: 3.48 nM, II: 4.99 nM)

1: CCCCCc1ccc(N2CCN(S(=O)(=O)C3(C(=O)NO)CCN(S(=O)(=O)N(C)C)CC3)CC2)cc1
2: CCCc1ccc(N2CCN(S(=O)(=O)C3(C(=O)NO)CCN(CCOC)CC3)CC2)cc1
3: CCCCOc1ccc(N2CCN(S(=O)(=O)C3(C(=O)NO)CCN(c4ncc(CC)cn4)CC3)CC2)cc1
4: COCCN1CCC(C(=O)NO)(S(=O)(=O)N2CCN(c3ccc(OCCCC(F)(F)F)cc3F)CC2)CC1
Sort the 4 molecules by Ki; largest first, smallest last. Your reply should list the labels following the order given in the request.
4, 3, 1, 2
(4: 18.1 nM, 3: 9.86 nM, 1: 2.61 nM, 2: 0.28 nM)

====

measured.on: MMP-2 (Homo sapiens, UniProt P08253)
Construct: made in house; host or cells: MMP-2-transfected p2AHT2 cells
Sequence (P08253 110-660): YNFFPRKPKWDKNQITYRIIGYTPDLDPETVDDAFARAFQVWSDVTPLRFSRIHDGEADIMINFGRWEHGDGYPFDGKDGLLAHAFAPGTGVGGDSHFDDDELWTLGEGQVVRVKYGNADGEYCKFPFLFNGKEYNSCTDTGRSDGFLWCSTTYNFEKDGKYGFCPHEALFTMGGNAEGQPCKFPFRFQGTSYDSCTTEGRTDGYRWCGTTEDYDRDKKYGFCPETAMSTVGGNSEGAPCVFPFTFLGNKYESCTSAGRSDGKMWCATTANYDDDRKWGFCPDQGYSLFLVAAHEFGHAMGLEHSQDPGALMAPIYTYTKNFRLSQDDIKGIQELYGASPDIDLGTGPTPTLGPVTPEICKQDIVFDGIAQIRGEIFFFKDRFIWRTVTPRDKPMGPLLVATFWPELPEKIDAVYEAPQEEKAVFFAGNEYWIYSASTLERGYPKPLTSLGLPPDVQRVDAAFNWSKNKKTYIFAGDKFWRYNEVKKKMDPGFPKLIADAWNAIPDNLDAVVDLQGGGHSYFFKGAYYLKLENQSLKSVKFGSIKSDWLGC
assay.name: In vitro MMP inhibition, Ki determination (fluorogenic substrate II)
Format: biochemical
test.parameters: value outside parentheses; read-out: MMP-2 Ki
pKi: −log10 of the molar value.
observed.property: pKi

Completed entries (count: 3):
>  <input.smiles>
CCCCOc1ccc(N2CCN(S(=O)(=O)C3(C(=O)NO)CCN(Cc4ccco4)CC3)CC2)cc1

>  <pKi>
8.86

$$$$
>  <input.smiles>
CCCCOc1ccc(N2CCN(S(=O)(=O)C3(C(=O)NO)CCN(c4ccc(C)nn4)CC3)CC2)cc1

>  <pKi>
9.42

$$$$
>  <input.smiles>
CCCCCCCOC1CCN(S(=O)(=O)C2(C(=O)NO)CCOCC2)CC1

>  <pKi>
8.75

$$$$

1: CCCCOc1ccc(N2CCN(S(=O)(=O)C3(C(=O)NO)CCN(c4ccc(C)cc4)CC3)CC2)cc1F
2: O=C(NO)C1(S(=O)(=O)N2CCC(c3ccc(CCC(F)(F)C(F)(F)F)cn3)CC2)CCOCC1
Parameter check: reported pKi is higher for which label, 1 or 2 ? API: response body contains the label of the selected item.
2
(2: 9.59, 1: 8.17)

I: O=C(NO)C1(S(=O)(=O)N2CCN(c3ncc(-c4ccccn4)s3)CC2)CCOCC1
II: CC(C)CCOc1ccc(N2CCN(S(=O)(=O)C3(C(=O)NO)CCOCC3)CC2)cc1
III: COCCN1CCC(C(=O)NO)(S(=O)(=O)N2CCN(c3ncccn3)CC2)CC1
Rank the items in ascending order with respect to pKi. Response format: the labels, sorted as the prompt asks.
III, I, II

====

measured.on: MMP-9 (Homo sapiens, UniProt P14780)
Construct: made in house; host or cells: MMP-9-transfected HT1080 cells (spent media)
assay.name: MMP-9 inhibition (in vitro Ki)
Assay type: biochemical
test.parameters: Table 9; read-out: MMP-9 Ki (IC-50)
observed.property: Ki (nM)

>  <compound>
O=C(CCCCC1CCN(S(=O)(=O)C2(C(=O)NO)CCOCC2)CC1)N1CCN(c2ccccc2)CC1 [Example A98]

>  <unit.of.measurement>
nM

>  <Ki>
191

$$$$
>  <compound>
CC(C)(C(=O)NO)S(=O)(=O)N1CCC(c2ccc(CCC(F)(F)C(F)(F)F)cn2)CC1 [Example A122]

>  <unit.of.measurement>
nM

>  <Ki>
0.27

$$$$
>  <compound>
O=C(NO)C1(S(=O)(=O)N2CCC(c3ccc(CCC(F)(F)C(F)(F)F)cn3)CC2)CCN(c2ccccc2)CC1 [Example A167]

>  <unit.of.measurement>
nM

>  <Ki>
2.21

$$$$
>  <compound>
CN(C(=O)CCCCC1CCN(S(=O)(=O)C2(C(=O)NO)CCOCC2)CC1)C1CCCCC1 [Example A96]

>  <unit.of.measurement>
nM

>  <Ki>
726

$$$$
>  <compound>
CC(=O)OCCCC#Cc1ccc(C2CCN(S(=O)(=O)C3(C(=O)NO)CCOCC3)CC2)nc1 [Example A135]

>  <unit.of.measurement>
nM

>  <Ki>
0.48

$$$$
>  <compound>
O=C(NCCCCC1CCN(S(=O)(=O)C2(C(=O)NO)CCOCC2)CC1)C1(c2ccccc2)CC1 [Example A115]

>  <unit.of.measurement>
nM

>  <Ki>
1350

$$$$

1: O=C(NO)C1(S(=O)(=O)N2CCN(c3ccc(-c4nnn(CC5CC5)n4)cc3)CC2)CCOCC1 [Example A175]
2: O=C(NO)C1(S(=O)(=O)N2CCC(c3ccc(/C=C/C(F)(F)C(F)(F)F)cn3)CC2)CCOCC1 [Example A116]
Which entry shows the lesser value of Ki here, 1 or 2 ? // return label of chosen record
2
